Entry source: patent US11795460B2

- Test system: TTR
- Test name: TTR editing in primary cyno hepatocytes electroporated with Spy Cas9 protein and dgRNAs (Tables 10, 11)
- Assay type: cell-based, cynomolgus monkey
- Cond: primary cyno hepatocytes electroporated with Spy Cas9 protein (RNP) and cyno specific dgRNAs
Recorded measurements of Avg % Insert, one per entry
Report as a plain number; the unit % is understood.

AUACCAGUCCAGCGAGGCAG (tested as dual guide RNA, chemistry not given here) [CR005366] = 0.33
ACACAAAUACCAGUCCAGCG (tested as dual guide RNA, chemistry not given here) [CR000689] = 18.11
ACUUGUCUUCUCUAUACCCA (tested as dual guide RNA, chemistry not given here) [CR005370] = 0.59
AAAGUUCUAGAUGCCGUCCG (tested as dual guide RNA, chemistry not given here) [CR005369] = 8.09

query: GET /values?readout=Avg % Insert&item= CCUCCUCUGCCUCGCUGGAC (tested as dual guide RNA, chemistry not given here) [CR005368]
result: 0.33

query: I would be grateful if you could share the reported Avg % Insert for AAAGGCUGCUGAUGAGACCU (tested as dual guide RNA, chemistry not given here) [CR005364] .
result: 0.58

query: What Avg % Insert value was documented for this sequence, CAUUGACAGCAGGACUGCCU (tested as dual guide RNA, chemistry not given here) [CR005365] ?
result: 0.10
